From: PubChem BioAssay

assay_info: Pseudomonas biofilm growth suppression – PAO1 strain, BacTiter-Glo luminescence, LB-PBS, primary screen (AID 1144)
cond: P. aeruginosa PAO1 biofilm, 12 h, higher = more signal
measure_name: z-score
Just the number, please, no unit after it.

These solved cases illustrate the format of a correct answer.
| compound | z-score |
| --- | --- |
| CN(C)CCCCCCNC(=O)[C@@H]1C[C@@H]2C(=O)N[C@@H](Cc3ccccc3)C(=O)N2[C@@H]1c1cccc(OCCO)c1 | 0.0305 |
| COCCOC(=O)N1C(=O)[C@@]2(c3cc(C#CCC(C(=O)OC)C(=O)OC)ccc31)[C@H](c1ccccc1OCCO)N1[C@H](c3ccccc3)[C@H](c3ccccc3)OC(=O)[C@H]1[C@@H]2C(=O)Nc1nc2ccccc2s1 | -1.9 |
| COc1ccc([Si](C)(C)[C@H]2[C@H](CC(=O)N3CCC[C@H]3CO)O[C@@]3(C(=O)N(c4ccccc4)c4ccccc43)[C@@H]2C)cc1 | 0.355 |
| O=C1C2C=CC(C(O)c3ccccn3)N(Nc3ccccc3F)C2C(=O)N1c1ccccc1 (stereo unspecified) | -0.62 |
| C=CCNC(=O)[C@H]1[C@@H]2C(=O)O[C@@H](c3ccccc3)[C@@H](c3ccccc3)N2[C@@H](c2ccc(OCCO)cc2)[C@]12C(=O)N(C(=O)OCCOC)c1ccc(C#CC3(O)CCCCCC3)cc12 | -0.148 |
| O=C(NCc1ccccc1)[C@@H]1c2ccccc2C(=O)N(C2CCCCC2)[C@H]1c1ccc(CO)cc1 | 0.583 |

Would you kindly share the measured z-score for Cc1ccc(S[C@]2(C(=O)NCCN3CCOCC3)CC(=O)N(C3CCCCC3)[C@@H]2c2ccc(CO)cc2)cc1 ?
0.314

Quick one: CC1(C)C(=O)C(c2ccccc2)=C2CN3C(=O)N(CCc4ccccc4)C(=O)C3(Cc3ccccc3)C=C21 (stereo unspecified)
-0.741

Quick one: C=CCNC(=O)[C@H]1[C@@H]2C(=O)O[C@@H](c3ccccc3)[C@@H](c3ccccc3)N2[C@@H](c2ccc(O)cc2)[C@]12C(=O)Nc1ccc(C#Cc3ccc(OC)cc3)cc12
-0.182

Quick one: Cc1ccc(F)cc1S(=O)(=O)N[C@@H]1CCN(Cc2ccc(C(F)(F)F)cc2)C1
1.2

Quick one: COc1ccc(C#Cc2ccc3c(c2)[C@]2(C(=O)N3)[C@H](C(=O)N3CCN(c4ncccn4)CC3)[C@H]3C(=O)O[C@H](c4ccccc4)[C@H](c4ccccc4)N3[C@@H]2c2ccc(O)cc2)cc1
-0.747

Quick one: CCCNC(=O)[C@@]1(C)c2ccccc2C(=O)N(C(C)C)[C@H]1c1ccc(CO)cc1
-0.744

Quick one: C=CC[C@@]1(C(N)=O)N=C(c2ccc(OCCCO)cc2)O[C@@H]1c1ccccc1N=[N+]=[N-]
-0.0376

---

assay_info: compounds binding Alexa647 anti-His antibody – biochemical, small-molecule microarray, 635 nm fluorescence, artefact control for SMM control protein annotation, primary screen (AID 1128);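 further: score merges feature fluorescence with signal-to-noise for each printed compound spot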
cond: higher = more signal
measure_name: composite z-score
Just the number, please, no unit after it.

| compound | composite z-score |
| --- | --- |
| [N-]=[N+]=NCc1ccccc1[C@H]1OC(c2ccc(OCCCO)cc2)=N[C@@]1(Cc1ccccc1)C(=O)O | 1.97 |

Would you kindly share the measured composite z-score for Cc1ccc(S[C@]2(C(=O)NCCCN(C)C)CC(=O)N(Cc3ccccc3)[C@@H]2c2ccc(CO)cc2)cc1 ?
-0.786

Quick one: C=C[C@H](C)[C@H](O)c1ccc(OCCO)cc1
-0.151

Quick one: O=C1OCC=C[C@H]2OC34C=CCN(Cc5ccccc5)C(=O)[C@H]3N(CCCO)C(=O)[C@@H]4[C@@H]12 (stereo partly specified)
2.26

Quick one: CN1C(=O)C2C=CC(C(O)C=Cc3ccc([N+](=O)[O-])cc3)N(N3CCCCC3)C2C1=O (stereo unspecified)
1.25

Quick one: COCCOC(=O)N1C(=O)[C@@]2(c3cc(C#Cc4ccc(OC)cc4)ccc31)[C@H](C(N)=O)[C@H]1C(=O)O[C@H](c3ccccc3)[C@H](c3ccccc3)N1[C@@H]2c1ccc(O)cc1
-0.994

Quick one: CCCC[C@H]1OB(O)C[C@H]2C1=C(COc1ccccc1)C[C@H]1C(=O)N(Cc3ccccc3)C(=O)[C@H]12
0.755

Quick one: C=C(COC)/C(=C/C[C@H](OC(C)=O)c1ccccc1OCCO)c1cnc2ccccc2c1
1.91

Quick one: NC(=O)NCC#Cc1ccc2c(c1)[C@]1(C(=O)N2)[C@H](c2ccccc2OCCO)N2[C@H](c3ccccc3)[C@H](c3ccccc3)OC(=O)[C@H]2[C@@H]1C(=O)N1CCCCCCC1
0.443

---

experimental_system: Focal adhesion kinase 1 (Homo sapiens)
assay_info: PTK2 protein binding on printed compound slides – biochemical, small-molecule microarray, 635/667 nm fluorescence, BSA, DTT, primary screen (AID 1130);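 further: composite of spot emission at 667 nm and signal to noise over triplicate slides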
cond: 635 nm fluorescence, higher = more signal
In this section, each of the molecules is paired with its reported composite z-score.
Just the number, please, no unit after it.

| molecule | composite z-score |
| --- | --- |
| C=CCN1Cc2ccccc2C[C@]2(N=C(c3ccc(OCCCO)cc3)O[C@@H]2c2ccccc2)C1=O | 0.692 |
| COCCOC(=O)N1C(=O)[C@@]2(c3ccccc31)[C@H](C(=O)N1CCCCCCC1)[C@H]1C(=O)O[C@H](c3ccccc3)[C@H](c3ccccc3)N1[C@@H]2c1ccccc1OCCO | 1.26 |
| C#C[C@H](O[Si](C#CCCCCCC)(C(C)C)C(C)C)c1ccccc1 | -0.308 |
| COc1c(C)cc(-c2cc3c(c(-c4ccccc4)n2)[Si](C(C)C)(C(C)C)O[C@H]3c2ccccc2)cc1C | -0.0638 |
| COC(=O)[C@@]1(Cc2ccc(OC)cc2)[C@H]2c3cc(C(=O)N4CCCC4)n(CCN4CCOCC4)c3C[C@H]2CN1C(=O)c1ccccc1 | 1.75 |
| CCCC[C@H]1OB(O)C[C@H]2C1=C(COc1ccccc1)C[C@H]1C(=O)N(Cc3ccccc3)C(=O)[C@H]12 | 0.314 |

Would you kindly share the measured composite z-score for O=C1C2C=CC(C(O)CCc3ccccc3)N(Nc3ccccc3)C2C(=O)N1c1ccccc1 (stereo unspecified) ?
0.477

Quick one: O=C1O[C@@H](c2ccccc2)[C@@H](c2ccccc2)N2[C@@H](c3ccccc3OCCO)[C@]3(C(=O)Nc4ccc(C#CC5(O)CCCCCC5)cc43)[C@@H](C(=O)NC[C@H](O)c3ccccc3)[C@H]12
1.03

Quick one: C=CCC(OC(C)=O)[C@@H]1[C@@H](N(Cc2cc3ccccc3o2)C(=O)c2cccc3ccccc23)c2cc(OCCCO)ccc2N1C(=O)Cc1ccc(OC)cc1 (stereo partly specified)
-0.109

---

System: Wnt5a (protein binding on small-molecule microarray)
assay_info: small molecules binding Wnt5a protein – biophysical, small-molecule microarray, 635/667 nm fluorescence, primary screen (AID 1142);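 further: fluorescence read at 667 nm with signal to noise per printed feature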
cond: 635 nm fluorescence, higher = more signal
Binary call on composite z-score: 1 from 0.3 upward, 0 beneath that.

Completed entries (count: 6):
| molecule | experimental_system | group_label |
| --- | --- | --- |
| COCCCNC(=O)[C@@]1(Cc2ccccc2I)c2ccccc2C(=O)N(Cc2ccccc2)[C@H]1c1ccc(CO)cc1 | Wnt5a (protein binding on small-molecule microarray) | 0 |
| COCCOC(=O)N1C(=O)[C@@]2(c3cc(C#CC4=CCCCC4)ccc31)[C@H](C(=O)N1CCN(c3ncccn3)CC1)[C@H]1C(=O)O[C@H](c3ccccc3)[C@H](c3ccccc3)N1[C@@H]2c1ccc(OCCO)cc1 | Wnt5a (protein binding on small-molecule microarray) | 1 |
| O=C1C2C=CC(C(O)CCc3ccccc3)N(Nc3ccccc3)C2C(=O)N1c1ccccc1 (centres undefined) | Wnt5a (protein binding on small-molecule microarray) | 1 |
| O=C1O[C@H](c2ccccc2)[C@H](c2ccccc2)N2[C@H]1[C@@H](C(=O)NC[C@H](O)c1ccccc1)[C@]1(C(=O)Nc3ccc(C#CC4=CCCCC4)cc31)[C@H]2c1ccc(O)cc1 | Wnt5a (protein binding on small-molecule microarray) | 1 |
| COC(=O)[C@@]1(Cc2ccc(F)cc2)[C@H]2c3cc(C(=O)N4CCCC4)n(Cc4ccc(Cl)c(C(F)(F)F)c4)c3C[C@H]2CN1C(=O)c1ccccc1 | Wnt5a (protein binding on small-molecule microarray) | 1 |
| CS(=O)(=O)CCOC(=O)C1=CC(c2ccc(CO)cc2)=CC(c2cccs2)N(Cc2cccc(OC(F)(F)F)c2)C=C1C(=O)OCCS(C)(=O)=O (centres undefined) | Wnt5a (protein binding on small-molecule microarray) | 0 |

Hi, just wondering whether CCCC[C@H]1C[C@@H]1[C@@H]1N(P(=O)(c2ccccc2)c2ccccc2)[C@](CO)(c2ccccc2)CC12CC2 shows composite z-score of 0.3 or higher.
1

Quick one: O=C1O[C@H](c2ccccc2)[C@H](c2ccccc2)N2[C@H]1[C@@H](C(=O)NC[C@H](O)c1ccccc1)[C@]1(C(=O)Nc3ccc(C#CC4(O)CCCCCC4)cc31)[C@H]2c1ccccc1OCCO
1

Quick one: CC(C)[C@H]1COC(=O)N1C(=O)[C@H]1[C@@H](c2ccccc2)N(c2ccccc2)O[C@@H]1C
0

Quick one: C=C[C@H](OC)[C@@H](OC(=O)Nc1ccc(SC)cc1)c1ccc(OCCO)cc1
1

Quick one: C=CC[C@]1(C(=O)NCCN2CCOCC2)N=C(c2ccc(OCCCO)cc2)O[C@H]1c1ccccc1N=[N+]=[N-]
0

Quick one: COCCOC(=O)N1C(=O)[C@@]2(c3cc(C#CCC(C(=O)OC)C(=O)OC)ccc31)[C@H](c1ccccc1OCCO)N1[C@H](c3ccccc3)[C@H](c3ccccc3)OC(=O)[C@H]1[C@@H]2C(=O)Nc1nc2ccccc2s1
1

Quick one: [N-]=[N+]=NCc1ccccc1[C@@H]1OC(c2ccc(OCCCO)cc2)=N[C@]1(Cc1ccccc1N=[N+]=[N-])C(N)=O
0
